- targetSystem: Receptor-type tyrosine-protein phosphatase C (Homo sapiens)
- Sequence (P08575 whole entry, the tested form may be a part): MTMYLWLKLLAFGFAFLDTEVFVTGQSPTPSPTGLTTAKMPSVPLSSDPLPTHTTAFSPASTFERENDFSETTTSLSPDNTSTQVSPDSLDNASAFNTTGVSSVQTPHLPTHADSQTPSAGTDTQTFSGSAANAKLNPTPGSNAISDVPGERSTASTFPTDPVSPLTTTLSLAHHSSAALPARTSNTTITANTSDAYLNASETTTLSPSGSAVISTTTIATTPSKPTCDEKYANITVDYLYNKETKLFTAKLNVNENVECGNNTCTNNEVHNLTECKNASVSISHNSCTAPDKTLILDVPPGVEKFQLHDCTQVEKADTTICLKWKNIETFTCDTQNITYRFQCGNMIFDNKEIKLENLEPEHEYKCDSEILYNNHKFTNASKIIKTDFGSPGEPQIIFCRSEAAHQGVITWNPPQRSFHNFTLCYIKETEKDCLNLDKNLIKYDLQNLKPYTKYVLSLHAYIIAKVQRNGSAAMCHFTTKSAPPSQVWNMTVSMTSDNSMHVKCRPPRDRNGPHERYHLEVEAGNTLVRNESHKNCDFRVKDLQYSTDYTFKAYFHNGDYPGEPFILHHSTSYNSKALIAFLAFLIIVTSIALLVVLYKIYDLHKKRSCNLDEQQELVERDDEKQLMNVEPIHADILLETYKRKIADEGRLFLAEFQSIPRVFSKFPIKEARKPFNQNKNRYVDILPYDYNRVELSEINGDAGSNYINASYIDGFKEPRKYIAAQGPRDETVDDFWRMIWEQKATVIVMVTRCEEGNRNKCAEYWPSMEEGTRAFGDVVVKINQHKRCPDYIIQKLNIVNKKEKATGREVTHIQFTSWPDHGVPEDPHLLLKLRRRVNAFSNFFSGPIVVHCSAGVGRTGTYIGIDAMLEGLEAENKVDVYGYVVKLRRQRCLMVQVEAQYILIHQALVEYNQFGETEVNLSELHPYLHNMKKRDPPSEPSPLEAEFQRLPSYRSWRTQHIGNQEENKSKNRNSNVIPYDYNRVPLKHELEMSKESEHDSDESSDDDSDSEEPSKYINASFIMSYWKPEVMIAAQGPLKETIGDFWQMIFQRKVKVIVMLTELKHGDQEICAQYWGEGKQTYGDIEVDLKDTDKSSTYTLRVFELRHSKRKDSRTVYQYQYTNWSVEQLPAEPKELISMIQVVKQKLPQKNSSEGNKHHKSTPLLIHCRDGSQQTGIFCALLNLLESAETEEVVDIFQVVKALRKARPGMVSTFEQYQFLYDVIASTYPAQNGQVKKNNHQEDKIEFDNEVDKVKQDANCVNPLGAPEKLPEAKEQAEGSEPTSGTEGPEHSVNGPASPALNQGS
- protocolNotes: Inhibition of human CD45-cytoplasmic domain at 150 uM after 10 mins by Kitz-Wilson analysis
endpointLabel: pKi
Would you please state pKi, meaning minus log10 of the concentration in mol/L, as a bare number?

Ask | What does the record list as pKi for N[C@@H](Cc1ccc(C(Br)P(=O)(O)O)cc1)C(=O)O (stereo partly specified) ?
Reply | 4.40
